# ASSAY_PROCEDURE: NCI Yeast Anticancer Drug Screen. Data for the sgs1 strain (AID 173);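 note: 0% = growth of vehicle-only control cultures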
# RUN_PARAMETERS: S. cerevisiae sgs1 mutant, at 33.0 µM, active compounds read high
# Method: Growth inhibition of yeast strains with defined genetic alterations is measured as a screen for potential anti-cancer activity. Selected strains with alterations in DNA damage repair or cell cycle control were exposed to compounds and growth inhibition was measured relative to vehicle treated controls. The strain used in this assay is sgs1
The panel holds about 79,000 compounds, 15% with a hit somewhere; the sample as a whole holds those more often.
Assign a class from recorded growth inhibition; defined classes: c1 (below 10%), c2 (10% to below 80%), c3 (80% or more)

// below: answered compounds
O=[N+]([O-])c1cc[n+]([O-])c(Cl)c1 : c3
NC(N)=NC(N)=Nc1ccccc1 (tested in a mixture with another compound) : c2
O=C1Nc2ccc(Br)cc2C1=Nc1ccc(Cl)cc1 : c2
CCC1(O)C(=O)OCc2c1cc1n(c2=O)Cc2cc3c(N)cccc3nc2-1 (stereo not drawn) : c1
Cc1ccc(S(=O)(=O)NC(=O)C2C(=O)CC3(CCCCC3)CC2=O)cc1 : c2
O=C(Nn1c(-c2ccccc2)nc2ccccc2c1=O)c1ccc(CS)cc1 : c2
CN(C)CCNC(=Cc1ccc2ccccc2[n+]1C)NCCN(C)C : c1
O=[N+]([O-])/C=C/c1cc2ccc3ccccc3c2[nH]1 : c3

Exam item: Each compound maps to one class by growth inhibition. Which class for Cc1cccc2c(NCCCN(C)C)c3c([N+](=O)[O-])ccc(C)c3nc12 ?
Marked response: c3

Exam item: Each compound maps to one class by growth inhibition. Which class for O=C(O)C1CCCCC1c1c2ccc(=O)cc-2oc2cc(O)ccc12 (stereo not drawn) ?
Marked response: c2

----------
# ASSAY_PROCEDURE: NCI Yeast Anticancer Drug Screen. Data for the rad14 strain (AID 159);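 note: 0% = growth of vehicle-treated control cultures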
# RUN_PARAMETERS: S. cerevisiae rad14 strain growth inhibition; at 11.0 µM
# Protocol: Growth inhibition of yeast strains with defined genetic alterations is measured as a screen for potential anti-cancer activity. Selected strains with alterations in DNA damage repair or cell cycle control were exposed to compounds and growth inhibition was measured relative to vehicle treated controls. The strain used in this assay is rad14
Compounds without any hit were thinned out: in the full panel of roughly 79,000, 15% have a hit. The source made the active and inactive calls. No stated cut-off is given here; in the data, active means growth inhibition above about 70%; inactive means the rest.
Pick one: active, inactive

// below: answered molecules
CCO/C=C1\SC(=S)N(c2ccc(OCC)cc2)C1=O : inactive
Cc1cccc(/C=N/NC(=S)NC2CCCCC2)n1 : inactive
CCN(CC)CC(=O)c1ccc2cc(Cl)c3ccccc3c2c1 : active
CC1(C2CC2)C(C#N)(C#N)C1(C#N)C#N : inactive

Exam item: How was COc1ccc2c3c1OC(C)C31CC(=O)CCC1CC2 (centres undefined) classified in this test?
Marked response: inactive

Exam item: How was O/N=c1/ccn(O)c2ccccc12 classified in this test?
Marked response: active

Exam item: How was NCCCSc1ccccc1 classified in this test?
Marked response: inactive

Exam item: How was N#CCC(=O)N/N=C(\c1ccccc1)C(c1ccccc1)C1(O)C(=O)Nc2c(Cl)ccc(Cl)c21 (centres undefined) classified in this test?
Marked response: inactive

Exam item: How was OC(Cc1cccc2ccccc12)CN1CCC(c2ccccc2)CC1 (centres undefined) classified in this test?
Marked response: active

Exam item: How was CC12CCC(CC(=O)/C1=C(/Br)I)C2(C)C (centres undefined) classified in this test?
Marked response: inactive

Exam item: How was C/C1=C/C2OC(=O)C3(C)C2C(CC2(C)OC1=CC2=O)OC3(O)C(C)C (centres undefined) classified in this test?
Marked response: inactive

Exam item: How was CC1(C)CC(=O)C(C(=O)Nc2cccs2)=C(O)C1 classified in this test?
Marked response: inactive

Exam item: How was O=C(c1cc(=O)c2ccc(O)cc2o1)c1ccc(Cl)cc1Cl classified in this test?
Marked response: inactive

Exam item: How was Nc1ccc2c(c1)C(=O)c1c(F)cccc1-2 classified in this test?
Marked response: inactive

Exam item: How was CC1=C(C)C(=O)C2=C(OCCO2)C1=O classified in this test?
Marked response: inactive

Exam item: How was Cc1ccc(C)c(C(=N)c2ccccc2Cc2ccccc2)c1 classified in this test?
Marked response: inactive

Exam item: How was COc1cc([N+](=O)[O-])c2ncccc2c1Br classified in this test?
Marked response: inactive

Exam item: How was CC(=O)Oc1ccc2c(c1)Cc1cc(N3C(=O)C=CC3=O)ccc1-2 classified in this test?
Marked response: inactive

Exam item: How was CC(/C=C/c1ccc([N+](=O)[O-])o1)=N/N1CC(CN2CCOCC2)OC1=O (centres undefined) classified in this test?
Marked response: inactive

Exam item: How was Cc1cccc2c(NCCCN(C)C)c3c([N+](=O)[O-])ccc(C)c3nc12 classified in this test?
Marked response: active

Exam item: How was CCOC(=O)Nc1ccc(C)c(NC(=O)OCC)c1 classified in this test?
Marked response: inactive

Exam item: How was CCCCCCNCCCNc1c2ccccc2nc2cccc([N+](=O)[O-])c12 classified in this test?
Marked response: active

Exam item: How was CCCC/C=C1\CCC(CN2CCCC2)C1=O (centres undefined) classified in this test?
Marked response: inactive

Exam item: How was NC(CS)C(=O)NCCNc1ccc(NCCNC(=O)C(N)CS)c2c1C(=O)c1c(O)ccc(O)c1C2=O (centres undefined) classified in this test?
Marked response: inactive
